Tested Target: HLA A*6802 (Homo sapiens, UniProt P04439, A269V/D140Y/D185E/E176V/E277Q/E87N/F33Y/G231S/I121R/I166T/I218V/L180W/L300P/L318F/N151K/P208A/P217A/Q86R/R138H/R169H/S129P/T345S/V36M)
Type: binding
Decision: Normalized average relative binding affinity(ARB) beneath 0.4 gives label 1; Normalized average relative binding affinity(ARB) meeting or exceeding 0.4 gives label 0.

Input: Field: below-cutoff. Rule: recorded Normalized average relative binding affinity(ARB) strictly less than 0.4. Subject: XXXXXXFXX [3064.0125]
Output: label 0

Input: Field: below-cutoff. Rule: recorded Normalized average relative binding affinity(ARB) strictly less than 0.4. Subject: XXXXXXEXX [3064.0124]
Output: label 0

Input: Field: below-cutoff. Rule: recorded Normalized average relative binding affinity(ARB) strictly less than 0.4. Subject: XXXXXGXXX [3064.0106]
Output: label 1

Input: Field: below-cutoff. Rule: recorded Normalized average relative binding affinity(ARB) strictly less than 0.4. Subject: XXXXXYXXX [3064.0120]
Output: label 0

Input: Field: below-cutoff. Rule: recorded Normalized average relative binding affinity(ARB) strictly less than 0.4. Subject: XXXXXXRXX [3064.0135]
Output: label 1

Input: Field: below-cutoff. Rule: recorded Normalized average relative binding affinity(ARB) strictly less than 0.4. Subject: XXXXXXVXX [3064.0138]
Output: label 0

Input: Field: below-cutoff. Rule: recorded Normalized average relative binding affinity(ARB) strictly less than 0.4. Subject: XXXXHXXXX [3064.0087]
Output: label 0

Input: Field: below-cutoff. Rule: recorded Normalized average relative binding affinity(ARB) strictly less than 0.4. Subject: XXXQXXXXX [3064.0074]
Output: label 1

Input: Field: below-cutoff. Rule: recorded Normalized average relative binding affinity(ARB) strictly less than 0.4. Subject: XXXXXXXTX [3064.0157]
Output: label 1

Input: Field: below-cutoff. Rule: recorded Normalized average relative binding affinity(ARB) strictly less than 0.4. Subject: XXXXXXXCX [3064.0142]
Output: label 1

Input: Field: below-cutoff. Rule: recorded Normalized average relative binding affinity(ARB) strictly less than 0.4. Subject: XXXXXXXFX [3064.0145]
Output: label 1

Input: Field: below-cutoff. Rule: recorded Normalized average relative binding affinity(ARB) strictly less than 0.4. Subject: XXXXAXXXX [3064.0081]
Output: label 0

Input: Field: below-cutoff. Rule: recorded Normalized average relative binding affinity(ARB) strictly less than 0.4. Subject: XXXXRXXXX [3064.0095]
Output: label 1

Input: Field: below-cutoff. Rule: recorded Normalized average relative binding affinity(ARB) strictly less than 0.4. Subject: XXXXXRXXX [3064.0115]
Output: label 0

Input: Field: below-cutoff. Rule: recorded Normalized average relative binding affinity(ARB) strictly less than 0.4. Subject: XXXXXXIXX [3064.0128]
Output: label 0

Input: Field: below-cutoff. Rule: recorded Normalized average relative binding affinity(ARB) strictly less than 0.4. Subject: XXXRXXXXX [3064.0075]
Output: label 1

Input: Field: below-cutoff. Rule: recorded Normalized average relative binding affinity(ARB) strictly less than 0.4. Subject: XXXXXXXHX [3064.0147]
Output: label 1

Input: Field: below-cutoff. Rule: recorded Normalized average relative binding affinity(ARB) strictly less than 0.4. Subject: XXXXXAXXX [3064.0101]
Output: label 0

Input: Field: below-cutoff. Rule: recorded Normalized average relative binding affinity(ARB) strictly less than 0.4. Subject: XXXXTXXXX [3064.0097]
Output: label 1

Input: Field: below-cutoff. Rule: recorded Normalized average relative binding affinity(ARB) strictly less than 0.4. Subject: XXXWXXXXX [3064.0079]
Output: label 0

Input: Field: below-cutoff. Rule: recorded Normalized average relative binding affinity(ARB) strictly less than 0.4. Subject: XXXXWXXXX [3064.0099]
Output: label 1

Input: Field: below-cutoff. Rule: recorded Normalized average relative binding affinity(ARB) strictly less than 0.4. Subject: XXXXXXKXX [3064.0129]
Output: label 1

Input: Field: below-cutoff. Rule: recorded Normalized average relative binding affinity(ARB) strictly less than 0.4. Subject: XXXXCXXXX [3064.0082]
Output: label 0

Input: Field: below-cutoff. Rule: recorded Normalized average relative binding affinity(ARB) strictly less than 0.4. Subject: XXXVXXXXX [3064.0078]
Output: label 1

Input: Field: below-cutoff. Rule: recorded Normalized average relative binding affinity(ARB) strictly less than 0.4. Subject: XXXIXXXXX [3064.0068]
Output: label 1

Input: Field: below-cutoff. Rule: recorded Normalized average relative binding affinity(ARB) strictly less than 0.4. Subject: XXXTXXXXX [3064.0077]
Output: label 1

Input: Field: below-cutoff. Rule: recorded Normalized average relative binding affinity(ARB) strictly less than 0.4. Subject: XXXLXXXXX [3064.0070]
Output: label 1

Input: Field: below-cutoff. Rule: recorded Normalized average relative binding affinity(ARB) strictly less than 0.4. Subject: XXXXVXXXX [3064.0098]
Output: label 0

Input: Field: below-cutoff. Rule: recorded Normalized average relative binding affinity(ARB) strictly less than 0.4. Subject: XXXXXLXXX [3064.0110]
Output: label 1

Input: Field: below-cutoff. Rule: recorded Normalized average relative binding affinity(ARB) strictly less than 0.4. Subject: XXXGXXXXX [3064.0066]
Output: label 1

Input: Field: below-cutoff. Rule: recorded Normalized average relative binding affinity(ARB) strictly less than 0.4. Subject: XXXXGXXXX [3064.0086]
Output: label 0
